Each entry below carries its recorded IC50.
System: NIH-3T3 viability, ATP luminescence
Experiment: murine fibroblast viability via ATP level – cell-based, murine fibroblasts, cytotoxicity control for Trypanosoma cruzi inhibitor project (AID 1159561)
Settings: 4 days
Calls of active or inactive are those of the source.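 How the source made its calls: active means toxic to mouse fibroblast host cells, with IC50 below 50 µM; inactive means the rest.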

Solved entries:
O=c1[nH]ccc2ccc(-c3ccncc3)cc12 :: > 50 µM (inactive)
O=C(NCCc1cccnc1)c1ccc(-c2ccccc2F)o1 :: 40 µM
CCN(Cc1ccncc1)Cc1ccc(NC(=O)c2cc(-c3ccc(F)cc3)n[nH]2)cc1 :: 10 µM
Cc1cccc(NS(=O)(=O)c2ccc3c(c2)C(=O)c2cc(S(=O)(=O)Nc4cccc(C)c4C)ccc2-3)c1C :: > 50 µM (inactive)

Query: Given the entry COc1ccc(-c2nc3ccncc3c(=O)n2CCOc2ccccc2)cc1 , report its measured IC50.
Result: 32 µM

Query: Given the entry Cn1nc([N+](=O)[O-])nc1N1CCCCC1 , report its measured IC50.
Result: > 50 µM (inactive)

Query: Given the entry O=c1ccn(-c2ccc([N+](=O)[O-])cc2Cl)c2ccc(F)cc12 , report its measured IC50.
Result: > 50 µM (inactive)

Query: Given the entry CC(C)(C)C(O)(CCc1ccc(Cl)cc1)Cn1cncn1 (stereo unspecified) , report its measured IC50.
Result: > 50 µM (inactive)

Query: Given the entry Cn1c(CN2CCN(c3ncc(C(F)(F)F)cc3Cl)CC2)nc2ccncc21 , report its measured IC50.
Result: 10 µM

Query: Given the entry O=C(Nc1cccc(F)c1)N1CCC(Oc2cccc(-c3cccnc3)c2)CC1 , report its measured IC50.
Result: 40 µM

Query: Given the entry O=C(Nc1cccc(Cl)c1)N1CCCCC1c1cccnc1 (stereo unspecified) , report its measured IC50.
Result: 32 µM

----------
System: NIH-3T3 viability, ATP luminescence
Assay: murine fibroblast viability via ATP level – cell-based, murine fibroblasts, cytotoxicity control for Trypanosoma cruzi inhibitor project (AID 1159561)
Details: 4 days
The source made the active and inactive calls.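 Rule for the calls: active = toxic to mouse fibroblast host cells, with IC50 below 50 µM; inactive = the rest.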
Classes to choose from: true (1) = active, false (0) = inactive

O=C(Nc1nc(-c2ccc(S(=O)(=O)N3CCOCC3)cc2)cs1)c1ccc([N+](=O)[O-])cc1 :: true (1)
Cc1ccc(C)c(OC2CCN(C(=O)C(C)n3ccnc3)CC2)c1 (stereo not drawn) :: false (0)
CCOc1cnn(C)c(=O)c1Nc1ccc(C(=O)NCc2ccc(F)cc2)cc1 :: false (0)
COc1cc(C(C)C)c(S(C)(=O)=O)cc1C(=O)N1CCN(c2ccccc2Cl)CC1 :: false (0)
Cc1ccc(CNC2CCN(C[C@@H]3Cn4c(=O)ccc5ccc(=O)n3c54)CC2)cc1F :: true (1)

Query: What did the test return for COc1ccc(C)cc1-c1csc(NC(=O)C(C)n2ccnc2)n1 (stereo not drawn) ?
Result: true (1)

Query: What did the test return for Cc1ccc(C)c(-n2nnnc2Sc2nc([N+](=O)[O-])nn2C)c1 ?
Result: false (0)

Query: What did the test return for COc1cccc(C(=O)[C@H]2C[C@@H]2CN(Cc2cccnc2)Cc2cccnc2)c1 ?
Result: true (1)

Query: What did the test return for COc1ccc2nc(N(Cc3cccnc3)C(=O)C3CCC3)sc2c1 ?
Result: true (1)

Query: What did the test return for COc1ccc2c(Cl)c(C(=O)N3CCC3)sc2c1Cl ?
Result: false (0)

----------
Test system: NIH-3T3 viability, ATP luminescence
Experiment: murine fibroblast viability via ATP level – cell-based, murine fibroblasts, cytotoxicity control for Trypanosoma cruzi inhibitor project (AID 1159561)
Conditions: 4 days
Active and inactive are the calls of the source.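 How the source made its calls: active means toxic to mouse fibroblast host cells, with IC50 below 50 µM; inactive means the rest.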
Classes to choose from: active, inactive

CCCN(Cc1ccc(OC)c(OC)c1)Cc1cc(=O)c2c(C)cc(C)cc2[nH]1 :: active
COc1ccc(C(=O)Nc2cc(C(F)(F)F)ccc2N2CCOCC2)c(OC)c1 :: active
O=c1oc2ccccc2n1C1CCN(Cc2ccccc2-c2cccnc2)CC1 :: active
CC(Cn1ccnc1)NC(=O)C1CC1c1cccc(Cl)c1Cl (stereo unspecified) :: inactive
CCN(CC)S(=O)(=O)c1ccc(C(=O)Nc2cc(C)nn2-c2nc(C)c(C)c(=O)[nH]2)cc1 :: inactive

Query: What did the test return for O=C(NCCc1cccnc1)c1csc(-c2ccccc2)n1 ?
Result: active

Query: What did the test return for CC1=NN(C(=O)CCn2cnc([N+](=O)[O-])n2)C(O)(C(F)(F)F)C1 (stereo unspecified) ?
Result: inactive

Query: What did the test return for CC(=Cc1ccccc1)CN1CCC(=O)N(Cc2cccnc2)CC1 ?
Result: inactive

Query: What did the test return for COc1ccc(-c2ccc3nnc(-c4ccc(O)c(OC)c4)n3c2)cn1 ?
Result: active

Query: What did the test return for CC(Cn1ccnc1)NC(=O)C=Cc1ccc(Cl)cc1 (stereo unspecified) ?
Result: inactive

Query: What did the test return for COc1ccc(-c2nc3ncccc3o2)cc1NC(=O)c1cccs1 ?
Result: inactive

Just for reference, PubChem BioAssay AID1159561 is where these values come from.
